Where these numbers come from: paper PMC9088311

Experiment: in vitro
Conditions: human
OBSERVED PROPERTY: viability at 7 h, 50 µM
Could you write the number and then its unit?

Let me know recorded viability at 7 h, 50 µM for O=c1c2ccccc2[se]n1-c1ccccc1 [Compound 46, Ebselen, reference compound] , thanks.
40%

Give the reported viability at 7 h, 50 µM for this compound. `CC(C)(C)OC(=O)NCCNC(=O)O[C@H]1CSS(=O)(=O)C[C@H]1O`
76%

Report measured viability at 7 h, 50 µM; entry is O=S(O)CC(O)C(O)CSSCC(O)C(O)CS(=O)O (stereo not shown)
97%

# return recorded viability at 7 h, 50 µM for input `O=C1O[C@H]2CSS(=O)(=O)C[C@H]2O1`
84%

Give the measured viability at 7 h, 50 µM for O=C(O)Cn1[se]c2ccccc2c1=O [Compound 45, reference compound]
81%

Provide measured viability at 7 h, 50 µM value, entry: `NCCNC(=O)O[C@H]1CSS(=O)(=O)C[C@H]1O`
86%

Give recorded viability at 7 h, 50 µM. CCN1C(=O)C2SSSSC1C(=O)N2CC(=O)O (stereo not shown) [Compound 47, reference compound]
70%

---

For each record, write down the corresponding viability at 7 h, 5 µM.
Assay: in vitro
Details: human

Quick one: give measured viability at 7 h, 5 µM for CC(=O)/C=C1/C(=O)N(C)c2ccccc21 [Compound 48, super-cinnamaldehyde, reference compound]
94%

Provide one value: measured viability at 7 h, 5 µM of `CC1(C)O[C@H]2CSS(=O)(=O)C[C@H]2O1`
125%

State its viability at 7 h, 5 µM: `CC(C)(C)[Si](C)(C)O[C@@H]1CS(=O)(=O)SC[C@@H]1O`
105%

Could you please provide reported viability at 7 h, 5 µM for CC#CI1OC(=O)c2ccccc21 [Compound 49, reference compound] ? Thanks!
92%

Using the record for `O=C(NCCCCCCNC(=O)O[C@H]1CSS(=O)(=O)C[C@H]1O)O[C@H]1CSS(=O)(=O)C[C@H]1O` , state its measured viability at 7 h, 5 µM.
100%

Determine from records and report viability at 7 h, 5 µM for O=C(O)c1cc(SSc2ccc([N+](=O)[O-])c(C(=O)O)c2)ccc1[N+](=O)[O-] [Compound 16, 5,5’-Dithiobis(2-nitrobenzoic acid), reference compound]
89%

---

Test system: HK cells, transporter 28
Experiment: HCHT imaging: inhibition of cytosolic delivery of CTO transporter 28
Assay type: cell-based, Human
Settings: Homo sapiens, read-out: IC50 (concentration needed to reach 50% inhibition); transporter 28 5 μM; co-incubation (C); inhibitor 1 h
OBSERVED PROPERTY: pIC50
Reminder that pIC50 is minus the log10 of a molar concentration.

Give the value of pIC50 reported for the following: `O=S1(=O)C=C[C@@H](O)CS1`
4.22

---

Assay: in vitro
Conditions: human
Give measured viability at 7 h, 10 µM for each item. Keep answers brief.
Record the value in %, omitting the unit from your answer.

Find the measured viability at 7 h, 10 µM of `O=C(NCCCCCCNC(=O)O[C@H]1CSS(=O)(=O)C[C@H]1OCc1ccccc1)O[C@H]1CSS(=O)(=O)C[C@H]1OCc1ccccc1` and report it.
107

Report measured viability at 7 h, 10 µM; entry is CC(C)(C)[Si](C)(C)O[C@H]1CS(=O)(=O)SC[C@H]1OC(=O)NCCNC(=O)CC(O)(CC(=O)NCCNC(=O)O[C@H]1CSS(=O)(=O)C[C@H]1O[Si](C)(C)C(C)(C)C)C(=O)NCCNC(=O)O[C@@H]1CSS(=O)(=O)C[C@@H]1O[Si](C)(C)C(C)(C)C (some centres unmarked)
107

Identify measured viability at 7 h, 10 µM corresponding to `CCCNC(=O)O[C@H]1CSS(=O)(=O)C[C@H]1O[Si](C)(C)C(C)(C)C`
87

Hello, please tell me recorded viability at 7 h, 10 µM for this one: `C#CCNC(=O)CC[C@H](NC(=O)COCCNC(=O)O[C@H]1CSS(=O)(=O)C[C@H]1O[Si](C)(C)C(C)(C)C)C(=O)NCCOCCNC(=O)O[C@H]1CSS(=O)(=O)C[C@H]1O[Si](C)(C)C(C)(C)C`
98

Specify measured viability at 7 h, 10 µM for CC(C)(C)[Si](C)(C)OC1CS(=O)(=O)SCC1OC(=O)NCCCCCCNC(=O)OC1CSS(=O)(=O)CC1O[Si](C)(C)C(C)(C)C (centres unmarked) .
103

---

Molecular target: cathepsin B (Homo sapiens, UniProt P07858)
Assay: Cathepsin B inhibition (preliminary, not shown)
Format: biochemical
Settings: 50 μM; preliminary results

STRUCTURE | inhibition of cathepsin B (in words)
O=S1(=O)C=C[C@@H](O)CS1 | inhibit only cathepsin B
CC(C)(C)OC(=O)NCCNC(=O)O[C@H]1CSS(=O)(=O)C[C@H]1O | inhibit only cathepsin B
O=C(N[C@H]1CCS(=O)(=O)SC1)N[C@H]1CCS(=O)(=O)SC1 | inhibit only cathepsin B

---

Can you tell me RV50 (concentration needed to lower relative viability by 50%) for the items I'm about to list?
System: HeLa Kyoto cells
Test: Relative viability (HOE/PI) in HCHT screening
Conditions: with transporter 28; pre-incubation (P)

// fetch RV50 (concentration needed to lower relative viability by 50%) for CC#CI1OC(=O)c2ccccc21 [Compound 49, reference compound] ; system: HeLa Kyoto cells
>50 µM

For HeLa Kyoto cells, give the measured RV50 (concentration needed to lower relative viability by 50%) of the entry [O-][S+]1C[C@@H](O)[C@@H](O)CS1 (stereo partly shown)
>100 µM

Output reported RV50 (concentration needed to lower relative viability by 50%) of the compound CCN1C(=O)C2SSSSC1C(=O)N2CC(=O)O (stereo not shown) [Compound 47, reference compound] on HeLa Kyoto cells.
>10 µM

Report RV50 (concentration needed to lower relative viability by 50%) from HeLa Kyoto cells testing of O=S1(=O)C[C@H](O)[C@H](O)CS1 (stereo in doubt)
>1000 µM

---

System: HK cells, transporter 31
Assay: HCHT imaging: inhibition of cytosolic delivery of ETP transporter 31
Type: cell-based, Human
Settings: Homo sapiens, 1 h, read-out: IC50 (concentration needed to reach 50% inhibition), transporter 31 10 μM; co-incubation (C); inhibitor 1 h
OBSERVED PROPERTY: IC50

Name the recorded IC50 of the molecule listed here: NCCNC(=O)O[C@H]1CSS(=O)(=O)C[C@H]1O [Compound 39]
> 50 µM

Determine its reported IC50: CC1(C)O[C@H]2CSS(=O)(=O)C[C@H]2O1 [Compound 13]
> 10 µM

Specify measured IC50 for O=C1O[C@H]2CSS(=O)(=O)C[C@H]2O1 [Compound 11] .
> 50 µM

# return recorded IC50 for input CC(C)(C)OC(=O)NCCNC(=O)O[C@H]1CSS(=O)(=O)C[C@H]1O [Compound 34]
> 100 µM

---

Exercise: for every item that follows, state its recorded IC15.
System: HK cells, transporter 31
Test: HCHT imaging: inhibition of cytosolic delivery of ETP transporter 31
Format: cell-based, Human
Conditions: Homo sapiens, 1 h, read-out: MIC (concentration needed to reach 15% inhibition), transporter 31 10 μM; co-incubation (C); inhibitor 1 h

Give the reported IC15 for this compound. `CC1(C)O[C@H]2CSS(=O)(=O)C[C@H]2O1`
> 10 µM

Quickly give me recorded IC15 for O=c1c2ccccc2[se]n1-c1ccccc1 [Compound 46, Ebselen, reference compound]
< 2 µM

Determine from records and report IC15 for `O=C1O[C@H]2CSS(=O)(=O)C[C@H]2O1`
< 5 µM
